Cited source for all entries: BigSolDB 2.1

settings: in toluene, 300.95 K
measure: solubility (mole fraction)

test-smiles: c1ccc(OP2(Oc3ccccc3)=NP(Oc3ccccc3)(Oc3ccccc3)=NP(Oc3ccccc3)(Oc3ccccc3)=N2)cc1
measure: solubility (mole fraction)
meas-value: 0.065

====

settings: in n-heptane, 298.15 K
measure: solubility (mole fraction)

test-smiles: c1ccc(OP2(Oc3ccccc3)=NP(Oc3ccccc3)(Oc3ccccc3)=NP(Oc3ccccc3)(Oc3ccccc3)=N2)cc1
meas-value: 0.0035

====

conditions: in 2-ethoxyethanol, 293.85 K

test-smiles: O=[PH](O)c1ccccc1
solubility (mole fraction): 0.136

====

details: in toluene, 298.35 K
Measured solubility (mole fraction) by item

test-smiles: CP(=O)(O)c1ccccc1
solubility (mole fraction): 0.147

test-smiles: O=[PH](O)c1ccccc1
solubility (mole fraction): 0.0282

====

conditions: in n-heptane, 308.35 K
measure: solubility (mole fraction)

test-smiles: c1ccc(OP2(Oc3ccccc3)=NP(Oc3ccccc3)(Oc3ccccc3)=NP(Oc3ccccc3)(Oc3ccccc3)=N2)cc1
meas-value: 0.0044

====

details: in toluene, 328.35 K

test-smiles: CP(=O)(O)c1ccccc1
solubility (mole fraction): 0.377

====

details: in n-heptane, 323.35 K

test-smiles: c1ccc(OP2(Oc3ccccc3)=NP(Oc3ccccc3)(Oc3ccccc3)=NP(Oc3ccccc3)(Oc3ccccc3)=N2)cc1
solubility (mole fraction): 0.0062

====

conditions: in THF, 314.25 K
measure: solubility (mole fraction)

test-smiles: c1ccc(OP2(Oc3ccccc3)=NP(Oc3ccccc3)(Oc3ccccc3)=NP(Oc3ccccc3)(Oc3ccccc3)=N2)cc1
measure: solubility (mole fraction)
meas-value: 0.253

====

settings: in toluene, 308.35 K
measure: solubility (mole fraction)

test-smiles: CP(=O)(O)c1ccccc1
meas-value: 0.204

====

details: in ethyl acetate, 298.25 K

test-smiles: CP(=O)(O)c1ccccc1
solubility (mole fraction): 0.075

====

settings: in dichloromethane, 293.65 K
measure: solubility (mole fraction)

test-smiles: CP(=O)(O)c1ccccc1
meas-value: 0.0697

====

settings: in methanol, 303.75 K
measure: solubility (mole fraction)

test-smiles: O=[PH](O)c1ccccc1
meas-value: 0.28

====

conditions: in methanol, 308.15 K

test-smiles: CP(=O)(O)c1ccccc1
solubility (mole fraction): 0.372

====

settings: in toluene, 333.25 K
measure: solubility (mole fraction)

test-smiles: CP(=O)(O)c1ccccc1
measure: solubility (mole fraction)
meas-value: 0.418

====

conditions: in benzene, 328.35 K

test-smiles: O=[PH](O)c1ccccc1
solubility (mole fraction): 0.415

====

details: in water, 343.45 K

test-smiles: CP(=O)(O)c1ccccc1
solubility (mole fraction): 0.0968

====

details: in acetone, 308.15 K
measure: solubility (mole fraction)

test-smiles: CP(=O)(O)c1ccccc1
measure: solubility (mole fraction)
meas-value: 0.0995

====

settings: in ethyl acetate, 323.15 K

test-smiles: c1ccc(OP2(Oc3ccccc3)=NP(Oc3ccccc3)(Oc3ccccc3)=NP(Oc3ccccc3)(Oc3ccccc3)=N2)cc1
solubility (mole fraction): 0.136

====

details: in acetonitrile, 333.25 K
measure: solubility (mole fraction)

test-smiles: c1ccc(OP2(Oc3ccccc3)=NP(Oc3ccccc3)(Oc3ccccc3)=NP(Oc3ccccc3)(Oc3ccccc3)=N2)cc1
meas-value: 0.0457

====

details: in toluene, 348.35 K
measure: solubility (mole fraction)

test-smiles: O=[PH](O)c1ccccc1
measure: solubility (mole fraction)
meas-value: 0.413
